Recorded abundance fitness by entry
B1: KAT8 regulatory NSL complex subunit 2, residues 28 to 91; numbered along this chain, Q9H9L4 (parent)
chain: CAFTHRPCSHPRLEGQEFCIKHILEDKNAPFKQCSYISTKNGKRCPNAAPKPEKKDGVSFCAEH

variants of: B1; assay: abundance fitness (aPCA) (normalised: wild type 0, dead -1); higher = more abundant; growth selection in yeast, the domain comes from the species named; conditions: Homo sapiens
Reply with just the number.

As a guide, the following entries are already answered.
Ask: Endpoint output: abundance fitness of CAFTHRPCSHPMLEGQEFCIKHILEDKNAPFKQCSYISTKNGKRCPNAAPKPEKKDGVSFCAEH [R12M] . Value?
Result: -0.47

Ask: Endpoint output: abundance fitness of CAFTHRPCSHPRLEGQEFCQKHILEDKNAPFKQCSYISTKNGKRCPNAAPKPEKKDGVSFCAEH [I20Q] . Value?
Result: -0.091

Ask: Endpoint output: abundance fitness of CAFTHRPCSHPRLEGQEFCIKHILEDKNAPFKQCSYISTKNGKRCPNAAPKPEKKDGVSFCANH [E63N] . Value?
Result: -0.062

Ask: Endpoint output: abundance fitness of CAFPHRPCSHPRLEGQEFCIKHILEDKNAPFKQCSYISTKNGKRCPNAAPKPEKKDGVSFCAEH [T4P] . Value?
Result: -0.512

Switching to the query record.
Ask: Endpoint output: abundance fitness of CAFTHRPCSHPRLEGQEFCIKHILEDKNAPFKQCSYISTKNGKRCPNAGPKPEKKDGVSFCAEH [A49G] . Value?
Result: -0.06
